# Procedure summary: self-splicing fitness, log relative to wild type (ln ratio); higher = more splicing; Tetrahymena group I intron in knt gene, E. coli kanamycin selection, DiMSum; sequences stand for … in CUCUCU…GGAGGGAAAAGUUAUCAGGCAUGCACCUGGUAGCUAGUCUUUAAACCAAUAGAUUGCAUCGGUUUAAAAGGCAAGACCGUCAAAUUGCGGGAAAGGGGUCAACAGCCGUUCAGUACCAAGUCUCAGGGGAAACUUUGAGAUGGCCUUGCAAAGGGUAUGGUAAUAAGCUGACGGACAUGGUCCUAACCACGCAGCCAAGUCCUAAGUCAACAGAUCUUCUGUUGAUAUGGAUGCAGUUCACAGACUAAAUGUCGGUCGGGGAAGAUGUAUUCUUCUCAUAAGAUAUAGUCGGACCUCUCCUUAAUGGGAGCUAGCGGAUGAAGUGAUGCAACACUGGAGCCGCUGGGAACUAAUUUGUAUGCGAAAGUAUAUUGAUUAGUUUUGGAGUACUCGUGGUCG;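 note: selection with 25 µg/mL kanamycin versus none on LB agar overnight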
# Particulars: 30 °C
Metric: self-splicing fitness (ln)
Number only, no unit.

Example entries and their recorded answers appear below.
UACGAGCAAUAUUACGCGAG    -2.49
GAUUAGCAAUAUUACGGCCA    -1.41
GGUAAGCAAUAUUACGCAAU    -1.38
UGCCAGCAAUAUUACGCGGA    -2.24

The sequence listed as `CAGGAGCAAUAUUACGAUUA` shows self-splicing fitness (ln) equal to -3.38

The sequence listed as `GGUGAGCAAUAUUACGAGUA` shows self-splicing fitness (ln) equal to -1.41

The sequence listed as `GGUUAGCAAUAUUACGAUUA` shows self-splicing fitness (ln) equal to -0.191

The sequence listed as `AGAAAGCAAUAUUACGUAGG` shows self-splicing fitness (ln) equal to -2.89
